# Tested on: NCI-H460 lung
# method: NCI tumour cell line growth inhibition, 48 h
Below: a set of entries, each annotated with reported TGI.

compound	measurement_type	result
Cc1cc(C)n(-c2nnc3n2N=C(c2ccc(-c4ccccc4)cc2)CS3)n1	TGI	> 100 µM
Cc1ccc(S(=O)(=O)NC(=O)NNc2ccc(F)cc2)cc1	TGI	> 100 µM
COc1cc(C(=O)N2CCc3c([nH]c4c([N+](=O)[O-])c(OC)ccc34)C2C)cc(OC)c1OC (stereo not drawn)	TGI	> 100 µM
C[C@]1(S(=O)(=O)c2ccccc2)C[C@H]2N(Cc3ccccc3)[C@@H]1CCC21OCCO1	TGI	> 100 µM

Query: Could you share which TGI value was measured for COc1c(O)c(O)cc2c1-c1ccc(OC)c(=O)cc1C(NC(C)=O)CC2 (stereo not drawn) ?
Response: 50.9 µM

Query: Could you share which TGI value was measured for "CC1=C(C(=O)Nc2ccccc2)C(c2ccc(C3C(C(=O)Nc4ccccc4)=C(C)NC(C)=C3C(=O)Nc3ccccc3)cc2)C(C(=O)Nc2ccccc2)=C(C)N1" ?
Response: 8.29 µM

Query: Could you share which TGI value was measured for "CC1=C[C@@H](C)C[C@]2(C)CC[C@H](O2)[C@]23CC[C@](C(=O)O)(C[C@H](O2)[C@@H]2O[C@@](C)(CC2=O)[C@@H](O)[C@H]2CC[C@@]4(CCC[C@@H](O4)[C@H](C)C(=O)O[C@H]4C[C@H]([C@]5(O)OCC[C@H](C)[C@@H]5O)O[C@H]4C=C1)O2)O3" ?
Response: > 10 µM

Query: Could you share which TGI value was measured for "O=C(N/N=C/c1ccc([N+](=O)[O-])o1)c1ccc(O)cc1" ?
Response: > 100 µM

----------
# Test system: NCI/ADR-RES ovarian
# method: NCI tumour cell line growth inhibition, 48 h
Where a SMILES comes first, the peptide text is derived from it. The star is where a group is joined. Bn = c1ccc(C*)cc1
measurement_type: TGI

Some molecules with recorded TGI:
molecule	result
Cc1ccc(S(=O)(=O)NC(=O)NNc2ccc(F)cc2)cc1	> 100 µM
O=C1CS(=O)C23c4cc5ccccc5n4CCC2CCCN13 (stereo not given)	> 100 µM
COC(=O)C(CC(C)C)NC(=O)C(N)Cc1ccc(OCc2ccccc2)cc1 (stereo not given) (H-Tyr(Bn)-Leu-OMe; configuration not given here)	> 10 µM
c1ccc(-c2cnc(-c3ccc(-c4ncc(-c5ccccc5)o4)cc3)o2)cc1	> 100 µM
O=C(c1ccco1)C1CC(c2c(O)ccc3ccccc23)=NN1 (stereo not given)	51.1 µM
CC12CC1C(c1cccc([N+](=O)[O-])c1)(c1cccc([N+](=O)[O-])c1)N=N2 (stereo not given)	59.3 µM

Query: Could you share which TGI value was measured for "O=C(CNCc1ccccc1)Oc1c(Cl)c(Cl)c(Cl)c(Cl)c1Cl" ?
Response: > 100 µM

Query: Could you share which TGI value was measured for "Clc1cc(Cl)cc(Nc2ccc3cc(OCCCN4CCOCC4)ccc3n2)c1" ?
Response: > 100 µM

Query: Could you share which TGI value was measured for CC(C)C1=C2CCC3(C)C(CCC4C5C6OCC5(CCC6(C)C)CCC43C)C2(C)CC1 (stereo not given) ?
Response: 39.6 µM

Query: Could you share which TGI value was measured for "O=C(Nc1ccc(-n2cc(-c3ccncc3)c(-c3ccc(O)c(Cl)c3)n2)cc1)Nc1cccc(Cl)c1Cl" ?
Response: > 32.5 µM

Query: Could you share which TGI value was measured for "Cc1ccc(S(=O)(=O)NC(=O)NC2=NC(C)(C)N(c3ccc(Cl)c(Cl)c3)C(N)=N2)cc1" ?
Response: > 100 µM

Query: Could you share which TGI value was measured for "COc1cc(OCc2ccc3nc(OC)c(OC)nc3c2)cc(OC)c1OC" ?
Response: > 10 µM

Query: Could you share which TGI value was measured for CCOC(=O)[C@@H]1ON2O[C@@H](OC3CCCC3(c3ccccc3)c3ccccc3)C[C@H]3OC(=O)[C@@H]1C32 (stereo not given in full) ?
Response: > 100 µM

Query: Could you share which TGI value was measured for "CC1=C[C@@H](C)C[C@]2(C)CC[C@H](O2)[C@]23CC[C@](C(=O)O)(C[C@H](O2)[C@@H]2O[C@@](C)(CC2=O)[C@@H](O)[C@H]2CC[C@@]4(CCC[C@@H](O4)[C@H](C)C(=O)O[C@H]4C[C@H]([C@]5(O)OCC[C@H](C)[C@@H]5O)O[C@H]4C=C1)O2)O3" ?
Response: > 10 µM

----------
Below: a set of entries, each annotated with reported GI50.
# Test system: NCI/ADR-RES ovarian
# method: NCI tumour cell line growth inhibition, 48 h

Some molecules with recorded GI50:
molecule	GI50
O=C1CSC(c2ccc(-c3nc4ccccc4s3)cc2)=N1	50.5 µM
COC(C(=O)[C@@H](O)[C@@H](C)O)[C@@H]1Cc2cc3cc(O[C@H]4C[C@@H](O[C@H]5C[C@@H](O)[C@H](O)C(C)O5)[C@H](O)C(C)O4)c(C)c(O)c3c(O)c2C(=O)[C@H]1O[C@H]1C[C@@H](O[C@H]2C[C@@H](O[C@H]3C[C@@H](O)[C@H](OC)C(C)O3)[C@@H](O)C(C)O2)[C@H](O)C(C)O1 (some centres undefined)	6.93 µM
COc1ccc(/C=C(/c2ccccc2)[N+](=O)[O-])cc1	1.75 µM
C=C1CC[C@@H](C(C)C)C[C@@H]2[C@H]([C@H](O)C[C@]2(C)O)[C@@]2(C)CC[C@@H]1O2	16.7 µM
CCCCCCCCCCN1CCC(N2CCCCC2)CC1	6.76 µM
O=C1C(Cl)=C(Nc2ccccc2O)C(=O)N1Cc1ccccc1	24.6 µM
Cc1cc(C)n(-c2nnc3n2N=C(c2ccc(-c4ccccc4)cc2)CS3)n1	3.09 µM
O=C(N/N=C/c1c(Cl)cccc1Cl)c1ccc(C(F)(F)F)nc1Nc1cccc(C(F)(F)F)c1	0.616 µM

Please examine the following record next.
Query: Could you share which GI50 value was measured for "C[C@]12CC[C@@H]3c4ccc(O)c([N+](=O)[O-])c4CC[C@H]3[C@@H]1CC[C@@H]2NS(=O)(=O)c1cccc(Br)c1" ?
Response: 2.69 µM

----------
# System: SNB-75 CNS
# method: NCI tumour cell line growth inhibition, 48 h
Below: a set of entries, each annotated with reported TGI.

compound	target_or_test_system	result
C[C@]1(S(=O)(=O)c2ccccc2)C[C@H]2N(Cc3ccccc3)[C@@H]1CCC21OCCO1	SNB-75 CNS	> 100 µM
CCOC(=O)C1(C(=O)OCC)CCCN1C(=O)[C@H](CNC(=O)OC(C)(C)C)NC(=O)OCc1ccccc1	SNB-75 CNS	> 100 µM

Please examine the following record next.
Query: Any idea what TGI came out for CN(C)P(=O)(Oc1occc1C(O)Cc1ccccc1)N(C)C (stereo not drawn) on SNB-75 CNS?
Response: > 100 µM

----------
# Test system: NCI-H460 lung
Outcomes you can answer with include only these: active, inactive

compound	class
COc1ccc2c(c1)C(C)Cc1c(ncnc1-n1cnc3cc(C)ccc31)N2C (configuration not stated)	active
COc1ccc(/C=C(/c2ccccc2)[N+](=O)[O-])cc1	inactive
Cc1cc(C)n(-c2nnc3n2N=C(c2ccc(-c4ccccc4)cc2)CS3)n1	inactive
[F][Sn]([F])([c]1ccccc1)[c]1ccccc1	inactive
Cn1cc(-c2ccc(-c3cncc(Cl)c3N3CCC4(CCNC4=O)CC3)cc2)cn1	inactive

Query: Each compound tested received a call. Report the one for "CO/N=C(/C)c1cccc(Nc2cc(-c3ccccc3)nc3ccc(OC)cc23)c1" .
Response: inactive

Query: Each compound tested received a call. Report the one for COC(C(=O)[C@@H](O)[C@@H](C)O)[C@@H]1Cc2cc3cc(O[C@H]4C[C@@H](O[C@H]5C[C@@H](O)[C@H](O)C(C)O5)[C@H](O)C(C)O4)c(C)c(O)c3c(O)c2C(=O)[C@H]1O[C@H]1C[C@@H](O[C@H]2C[C@@H](O[C@H]3C[C@@H](O)[C@H](OC)C(C)O3)[C@@H](O)C(C)O2)[C@H](O)C(C)O1 (some centres not stated) .
Response: active

----------
# Tested on: RXF 393 renal
# method: NCI tumour cell line growth inhibition, 48 h
measurement_type: TGI

Some molecules with recorded TGI:
molecule	TGI
Cc1nn(C(=O)c2ccc(Cl)cc2)c2c1C(c1ccc(O)cc1)SC(N)=N2 (stereo unspecified)	> 10 µM
COc1ccc(N=NC(=Nc2ccc(F)cc2)c2ccc(N(CCC#N)CCC#N)cc2)cc1	90 µM
COc1cc(C=C2C(=O)NC(=S)NC2=O)cc(OC)c1OC	> 100 µM
C=CCn1c2c(sc1=S)C(S)N=CN2 (stereo unspecified)	> 100 µM
Clc1cc(Cl)cc(Nc2ccc3cc(OCCCN4CCOCC4)ccc3n2)c1	3.6 µM

Query: Any idea what TGI came out for "Cc1ccc(Nc2nnc(-c3ccc4c(c3)OCO4)o2)c(C)c1" on RXF 393 renal?
Response: > 100 µM

Query: Any idea what TGI came out for "O=C(c1ccccc1)N1C(=S)N=C(Nc2ccccc2)C1=Nc1ccccc1" on RXF 393 renal?
Response: > 100 µM

Query: Any idea what TGI came out for CC(=O)OC1C2CCC1C1C2C2(Cl)C(Cl)=C(Cl)C1(Cl)C2(Cl)Cl (stereo unspecified) on RXF 393 renal?
Response: 29.3 µM

Query: Any idea what TGI came out for O=C(OCc1ccccc1)C(Cc1ccccc1)N(Cc1ccccc1)Cc1ccccc1 (stereo unspecified) on RXF 393 renal?
Response: > 100 µM

Query: Any idea what TGI came out for "C[C@]1(S(=O)(=O)c2ccccc2)C[C@H]2N(Cc3ccccc3)[C@@H]1CCC21OCCO1" on RXF 393 renal?
Response: > 100 µM

Query: Any idea what TGI came out for "CCCCCc1ccc(S(=O)(=O)Nc2cc(-c3csc(NC(C)=O)n3)ccc2N2CCN(C)CC2)cc1" on RXF 393 renal?
Response: 8 µM

Source listed as PubChem BioAssay (NCI).
